- test protocol: Ratio of Vmax of normal tissue (M-T) form of rat methionine Adenosyltransferase to that of KM of normal tissue(M-T)form of rat methionine Adenosyltransferase
Answer each item with its documented Ratio.
Just the number, please.

The recorded Ratio for CSCC(C)C(N)C(=O)O (centres undefined) is 8.6

Summary for this compound, CSC[C@@H](C)C(N)C(=O)O (some centres undefined) : Ratio is 1.8

The compound `CSCC[C@](C)(N)C(=O)O` showed Ratio equal to 1.3

Entry `CSCC[C@H](N)C(=O)O` ; Ratio = 6400

* * *

- measured on: S-adenosylmethionine synthase isoform type-2 (Rattus norvegicus)
- test protocol: Compound (3 mM) was tested for the inhibition of conversion of [14C]methionine to [14C]AdoMet by rat Methionine adenosyltransferase II
Quick rule: inhibition of at least 20% means Y, below that means N.

Would you say `CS[C@H](C)C[C@H](N)C(=O)O` shows inhibition at minimum 20%? Y

Dear colleague, could you confirm whether CSC[C@@H](C)C(N)C(=O)O (stereo partly drawn) has inhibition at or above 20%? N

Entry `CCCCN[C@@H](CCSC)C(=O)O` : is its inhibition no less than 20%? N

Threshold query (inhibition >= 20%) on `CSCC[C@](C)(N)C(=O)O` N

Quick check: does CSC(C)C[C@@H](N)C(=O)O (stereo partly drawn) have inhibition greater than or equal to 20%? Y

Determine whether this compound has inhibition no lower than 20%: `CSC[C@@H](C)[C@@H](N)C(=O)O` Y

# check: inhibition of `CN[C@@H](CCSC)C(=O)O` is greater than or equal to 20% N

hey, is inhibition for this one >= 20%? `CSC[C@@H](C)[C@H](N)C(=O)O` N
